Ref: paper PMC6137088

Test system: E. coli ATCC25922 ΔwaaG
Assay type: cell-based, Escherichia coli
assay conditions: Table 6, triplicates
Where no end group is shown, it is not given here.
Binary call on Antimicrobial activity: MIC with cut-off 8 µg/mL: strictly below means Criterion met, and equality or higher means Criterion not met.

Regarding GLRKRLRKFRNKFKEKLKKIGQKIQGLLPKLAPRTDY [I13F] , kindly confirm whether its Antimicrobial activity: MIC is beneath 8 µg/mL.
Criterion met

Threshold test, Antimicrobial activity: MIC < 8 µg/mL: GLRKRLRKFRNKHKEKLKKIGQKIQGLLPKLAPRTDY [I13H]
Criterion met

Find out if reported Antimicrobial activity: MIC for GLRKRLRKFRNKIKEKLKKIGQKIQTLLPKLAPRTDY [G26T] is less than 8 µg/mL
Criterion met

Would you kindly verify if Antimicrobial activity: MIC of GLRKRLRKFRNKIKEDLKKIGQKIQGLLPKLAPRTDY [K16D] is strictly less than 8 µg/mL?
Criterion met

Just wondering, is Antimicrobial activity: MIC of GLRKRLRKFRNKMKEKLKKIGQKIQGLLPKLAPRTDY [I13M] below 8 µg/mL?
Criterion met

Hello, is Antimicrobial activity: MIC of the following sequence strictly smaller than 8 µg/mL? GLRKRLRKFRNKIKEKPKKIGQKIQGLLPKLAPRTDY [L17P]
Criterion not met

Please state whether Antimicrobial activity: MIC is below 8 µg/mL for GLRKRLRKFRNKIKEKLPKIGQKIQGLLPKLAPRTDY [K18P]
Criterion met

Is 8 µg/mL strictly greater than the sequence's reported Antimicrobial activity: MIC? sequence: GLRKRLRKFRNKIKEKLKKIGQKDQGLLPKLAPRTDY [I24D]
Criterion not met

Given the entry GLRKRLRKFRNKIKEKLKKIGQKNQGLLPKLAPRTDY [I24N] , would its reported Antimicrobial activity: MIC be below 8 µg/mL?
Criterion not met

Answer whether the sequence GLRKRPRKFRNKIKEKLKKIGQKIQGLLPKLAPRTDY [L6P] has Antimicrobial activity: MIC strictly less than 8 µg/mL
Criterion met

Criterion: Antimicrobial activity: MIC strictly below 8 µg/mL. Is it met by GLRKRLRKFRNKIKEKLKKIGQKIQGLLPKLAPRTDY [Cap18] ?
Criterion met

Would you kindly verify if Antimicrobial activity: MIC of GLRKRLRKFRNKIKEKLKKNGQKIQGLLPKLAPRTDY [I20N] is strictly less than 8 µg/mL?
Criterion not met

Lab log: compare recorded Antimicrobial activity: MIC with 8 µg/mL; is it strictly lower for GLRKRLRKFRNKPKEKLKKIGQKIQGLLPKLAPRTDY [I13P] ?
Criterion not met

Hello, is Antimicrobial activity: MIC of the following sequence strictly smaller than 8 µg/mL? GLRKRLRKFRNKIKEKDKKIGQKIQGLLPKLAPRTDY [L17D]
Criterion not met

# strict comparison: is reported Antimicrobial activity: MIC < 8 µg/mL? input = GLRKRLRKFRNKDKEKLKKIGQKIQGLLPKLAPRTDY [I13D]
Criterion not met

In the record for GLRKRLRKFRNKIKEKLKKIGQKIQGPLPKLAPRTDY [L27P] , is Antimicrobial activity: MIC less than 8 µg/mL?
Criterion met

###

System: E. coli F470 (R1)
Format: cell-based, Escherichia coli
assay conditions: Table 4; E. coli F470 (R1 prototype, rough LPS); triplicates
Where no end group is shown, it is not given here.
Provide the reported Antimicrobial activity (MIC) of each item.

Which Antimicrobial activity (MIC) reading was recorded for the sequence GLRKKFRKTRKRIQKLGRKIGKTGRKVWKAWREYGQIPYPCRI [Cap11] ?
16 µg/mL

State the recorded Antimicrobial activity (MIC) for this entry: KLRKLFRKLLKLIRKLLR [Cap11-1-18 m^2]
32 µg/mL

What value of Antimicrobial activity (MIC) has been recorded for this entry: SWLSKTAKKLENSAKKRISEGIAIAIQGGPR [Cecropin P1]
32 µg/mL

Which measured Antimicrobial activity (MIC) value corresponds to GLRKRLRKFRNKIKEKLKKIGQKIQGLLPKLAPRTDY [Cap18] ?
4 µg/mL
